Details: octanol/water

COMPOUND | delta logD
CC(C)NCC(O)COc1ccc(CCOCC2CC2)cc1 (stereo not given) | -0.9
CNC1=Nc2ccc(Cl)cc2C(c2ccccc2)=[N+]([O-])C1 [CHLORDIAZEPOXIDE] | -0.01
COc1cc(NC(C)CCCN)c2ncccc2c1 (stereo not given) | -0.9
CN1CCN(CCCN2c3ccccc3Sc3ccc(Cl)cc32)CC1 | -0.69
C[C@]12C=CC(=O)C=C1CC[C@@H]1[C@@H]2C(=O)C[C@@]2(C)[C@H]1CC[C@]2(O)C(=O)CO | 0

----------
Experiment: physchem
Settings: octanol/water, pH 6.5
Label rule, in plain words: logD of 2 and up is Condition met, under 2 is Condition not met.

COMPOUND | LABEL_VALUE
CNC1=Nc2ccc(Cl)cc2C(c2ccccc2)=[N+]([O-])C1 [CHLORDIAZEPOXIDE] | Condition met
CCCCCc1cc(O)c2c(c1)OC(C)(C)[C@@H]1CCC(C)=C[C@@H]21 | Condition met
CN1CCN(C2=Nc3cc(Cl)ccc3Nc3ccccc32)CC1 | Condition not met
CCNCC(O)c1cccc(O)c1 (stereo not given) | Condition not met
Oc1ccc(C(O)C2CCCCN2)cc1O (stereo not given) | Condition not met
